This collection of values is drawn from the supplement of paper PMC10567573.

B1: HNF4A (parent)
chain: RFSRQCVVDKDKRNQCRYCRLKKC

Variants of: B1
Assay: protein stability index of a GFP-peptide fusion (GPS, HEK-293T) (PSI 1-6); higher = more stable;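 note: lentivirally expressed fusions sorted by FACS into six bins by GFP to DsRed ratio, PSI derived from sequencing read proportions per bin multiplied by bin number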
Details: c terminus: a fixed tail appended
Give protein stability index for every item shown.
No unit in the answer, please; the number alone is enough.

Requested field: protein stability index. Item: "V8I"
2.9

Requested field: protein stability index. Item: "Q5R"
2.83

Requested field: protein stability index. Item: "L21F"
2.86

Requested field: protein stability index. Item: "L21E"
3.08

Requested field: protein stability index. Item: "R20L"
2.35

Requested field: protein stability index. Item: "V8F"
2.38

Requested field: protein stability index. Item: "C16K"
3.1

Requested field: protein stability index. Item: "N14V"
2.6

Requested field: protein stability index. Item: "R1S"
2.18

Requested field: protein stability index. Item: "K22T"
2.13

Requested field: protein stability index. Item: "D11Y"
2.45

Requested field: protein stability index. Item: "V7K"
2.6

Requested field: protein stability index. Item: "V7Q"
2.05

Requested field: protein stability index. Item: "D9S"
2.92

Requested field: protein stability index. Item: "L21S"
3.36

Requested field: protein stability index. Item: "D11G"
2.55

Requested field: protein stability index. Item: "K10L"
2.37

Requested field: protein stability index. Item: "V8Y"
2.98

Requested field: protein stability index. Item: "D9P"
2.48

Requested field: protein stability index. Item: "R4K"
2.58

Requested field: protein stability index. Item: "Q15M"
2.48

Requested field: protein stability index. Item: "R4Q"
2.8

Requested field: protein stability index. Item: "S3P"
3.26

Requested field: protein stability index. Item: "R13D"
3.2

Requested field: protein stability index. Item: "K23V"
2.04

Requested field: protein stability index. Item: "F2K"
3.31

Requested field: protein stability index. Item: "K12G"
2.76

Requested field: protein stability index. Item: "R17I"
2.9

Requested field: protein stability index. Item: "L21D"
3.35

Requested field: protein stability index. Item: "K23H"
2.4

Requested field: protein stability index. Item: "D11I"
2.41

Requested field: protein stability index. Item: "Q5N"
2.6

Requested field: protein stability index. Item: "Q5V"
2.26

Requested field: protein stability index. Item: "K22D"
2.13

Requested field: protein stability index. Item: "R20N"
2.62

Requested field: protein stability index. Item: "K12W"
2.28

Requested field: protein stability index. Item: "R4L"
1.79

Requested field: protein stability index. Item: "C6V"
2.62

Requested field: protein stability index. Item: "K22A"
2.08

Requested field: protein stability index. Item: "C16V"
3.33

Requested field: protein stability index. Item: "Q15H"
1.96

Requested field: protein stability index. Item: "C6M"
2

Requested field: protein stability index. Item: "K22P"
2.12

Requested field: protein stability index. Item: "Q5E"
3.29

Requested field: protein stability index. Item: "C19S"
3.65

Requested field: protein stability index. Item: "V8P"
2.38
